# Tested on: SK-MEL-2 melanoma
# protocolNotes: NCI tumour cell line growth inhibition, 48 h
observable: TGI (µM)
Just the number in µM, nothing appended.

### Prompt Specify TGI for O=C(O)C1CCc2ccc3ccccc3c2C1c1cccc2ccccc12 (stereo not given) and stop.
### Response 38.6

### Prompt Specify TGI for CC(C)(C)N1Cc2ccccc2/C(=C/Sc2ccccc2)C1=O and stop.
### Response 31.4

***
### Prompt Specify TGI for O=C(Nc1ccccc1)c1ccc(Cl)c([N+](=O)[O-])c1 and stop.
### Response 32.4

====

Reported TGI by item:
# System: SF-539 CNS
# protocolNotes: NCI tumour cell line growth inhibition, 48 h

### Prompt Tell me TGI of COc1cc2c(cc1C)NC(=O)/C2=C\c1cc(OC)c(OC)c(OC)c1 when tested on SF-539 CNS.
### Response > 100 µM

### Prompt Tell me TGI of OC1OC(c2ccco2)C(F)(F)C(F)(F)C1(F)F (stereo unspecified) when tested on SF-539 CNS.
### Response > 100 µM

### Prompt Tell me TGI of O=C(O)c1ccccc1/C=N\NC1=NCCCCN1 when tested on SF-539 CNS.
### Response > 100 µM

### Prompt Tell me TGI of NC(=O)c1c[se]c(C2OC(CO)C(O)C2O)n1 (stereo unspecified) when tested on SF-539 CNS.
### Response > 71.8 µM

### Prompt Tell me TGI of O=c1oc2ccccc2c(O)c1/C=N\c1nc(-c2ccccc2)cs1 when tested on SF-539 CNS.
### Response 6.39 µM

Attention now turns to another entry.
### Prompt Tell me TGI of CC(C)c1ccc(Cc2cnc(NC(=O)c3cc(Br)cs3)s2)cc1 when tested on SF-539 CNS.
### Response 5.64 µM

====

# System: MOLT-4 leukemia
# protocolNotes: NCI tumour cell line growth inhibition, 48 h
observable: TGI

### Prompt Specify TGI for O=C(Nc1ccc(Cl)cc1)Nc1ccc(Cl)c(Cl)c1 and stop.
### Response > 100 µM

### Prompt Specify TGI for N#Cc1c2c(c(N3CCOCC3)n3c1nc1ccccc13)CCCC2 and stop.
### Response 41.5 µM

### Prompt Specify TGI for O=C(N=Nc1ccccc1Br)NNc1ccccc1Br and stop.
### Response > 100 µM

====

Reported GI50 by item:
# Test system: BT-549 breast
# protocolNotes: NCI tumour cell line growth inhibition, 48 h

Use these answered entries as a reference point.
### Prompt Specify GI50 for Clc1nc(Oc2ccccc2)nc(-c2cn(-c3ccccc3)c3ccccc23)n1 and stop.
### Response 17 µM

### Prompt Specify GI50 for CN(C)CCNc1nc2ccccc2c2c1c1c(n2Cc2ccccc2)-c2ccccc2C1=O and stop.
### Response 16.7 µM

### Prompt Specify GI50 for O=C(Oc1ccc(O)c2c(=O)n3c(cc12)[nH]c1ccccc13)c1ccccc1 and stop.
### Response 6.35 µM

### Prompt Specify GI50 for CCOc1ccc(/C=C/C(=O)c2ccccc2)cc1 and stop.
### Response 26.4 µM

### Prompt Specify GI50 for CC[N+](CC)=c1ccc2nc3c(cc(N)c4ccccc43)oc-2c1 and stop.
### Response 1.11 µM

***
### Prompt Specify GI50 for COc1cc2c(cc1C)NC(=O)/C2=C\c1cc(OC)c(OC)c(OC)c1 and stop.
### Response 29.6 µM

### Prompt Specify GI50 for CCCCCCC/C=C/[C@H]1O[C@]23C(=O)C[C@@]4(C[C@@H](OC5OC(CO)C(O)C(O)C5O)C[C@@H]4[C@H]2C=C1C)OC3=O (stereo partly specified) and stop.
### Response 2.06 µM

### Prompt Specify GI50 for Oc1ccc(Br)cc1Sc1cc(Br)ccc1O and stop.
### Response 8.46 µM

### Prompt Specify GI50 for CC1=CSC2=NC(c3ccc(Cl)c(Cl)c3)=CC(c3ccc(Cl)cc3)N12 (stereo unspecified) and stop.
### Response > 100 µM

### Prompt Specify GI50 for COc1cc(OC2OC(C)C(O)C(O)C2O)cc2oc(-c3ccc(O)cc3)c(CC=C(C)C)c(=O)c12 (stereo unspecified) and stop.
### Response 31.2 µM

### Prompt Specify GI50 for O=[N+]([O-])c1ccc2[nH]cc(-c3c4ccsc4cc4[nH]c5ccc([N+](=O)[O-])cc5c34)c2c1 and stop.
### Response 1.49 µM
